molecular target: human glucocorticoid receptor (Homo sapiens, UniProt P04150); construct: purified human recombinant full-length glucocorticoid receptor; purchased Invitrogen Part #2893; experiment: Glucocorticoid Receptor Binding Assay (I), fluorescence polarization competitor kit (Fluormone GS Red); details: GR Binding Assay (I)
Sequence (P04150 whole entry): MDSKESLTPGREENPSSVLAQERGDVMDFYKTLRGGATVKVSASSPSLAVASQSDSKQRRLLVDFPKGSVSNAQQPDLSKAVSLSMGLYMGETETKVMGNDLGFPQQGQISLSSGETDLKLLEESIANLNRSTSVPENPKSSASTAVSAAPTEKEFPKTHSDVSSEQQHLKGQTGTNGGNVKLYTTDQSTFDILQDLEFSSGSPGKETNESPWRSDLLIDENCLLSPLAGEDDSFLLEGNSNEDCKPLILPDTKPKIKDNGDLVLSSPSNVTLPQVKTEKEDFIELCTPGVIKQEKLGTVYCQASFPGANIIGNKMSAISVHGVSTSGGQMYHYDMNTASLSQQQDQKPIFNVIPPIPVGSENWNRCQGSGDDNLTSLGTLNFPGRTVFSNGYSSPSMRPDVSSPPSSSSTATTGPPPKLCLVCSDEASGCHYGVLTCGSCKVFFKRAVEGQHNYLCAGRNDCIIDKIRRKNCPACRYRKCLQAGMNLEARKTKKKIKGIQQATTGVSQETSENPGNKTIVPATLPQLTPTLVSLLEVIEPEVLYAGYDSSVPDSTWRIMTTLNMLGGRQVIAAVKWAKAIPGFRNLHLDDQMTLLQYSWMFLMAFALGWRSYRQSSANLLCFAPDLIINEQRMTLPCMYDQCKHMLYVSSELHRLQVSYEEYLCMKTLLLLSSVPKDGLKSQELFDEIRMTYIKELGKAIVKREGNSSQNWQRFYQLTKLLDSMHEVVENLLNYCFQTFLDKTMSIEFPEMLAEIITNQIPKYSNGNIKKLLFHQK
Decision: Ki beneath 20 nM gives rule met; Ki meeting or exceeding 20 nM gives rule not met.

[
  {
    "compound": "CC(C)Cc1ccc(-c2ccc(C(c3ccccc3)C(C)(C)C(=O)Nc3nncs3)cc2)cc1 (centres unmarked) [Example 383]",
    "target.entity": "human glucocorticoid receptor (Homo sapiens, UniProt P04150)",
    "qualitative.label": "rule met"
  },
  {
    "compound": "CC(C)(C(=O)Nc1nccs1)[C@H](c1ccccc1)c1ccc(O)cc1 [Example 326]",
    "target.entity": "human glucocorticoid receptor (Homo sapiens, UniProt P04150)",
    "qualitative.label": "rule met"
  },
  {
    "compound": "CC(C)CC(c1ccc(-c2ccc3c(c2)CCO3)cc1)C(C)(C)C(=O)Nc1nncs1 (centres unmarked) [Example 441]",
    "target.entity": "human glucocorticoid receptor (Homo sapiens, UniProt P04150)",
    "qualitative.label": "rule not met"
  },
  {
    "compound": "CN1CCN(C(=O)c2ccc(-c3ccc(C(c4ccccc4)C(C)(C)C(=O)Nc4nncs4)cc3)cc2)CC1 (centres unmarked) [Example 426]",
    "target.entity": "human glucocorticoid receptor (Homo sapiens, UniProt P04150)",
    "qualitative.label": "rule met"
  },
  {
    "compound": "CC(C)(C(=O)Nc1nccs1)C(c1ccccc1)c1ccc(Cc2ccccc2)cc1 (centres unmarked) [Example 319]",
    "target.entity": "human glucocorticoid receptor (Homo sapiens, UniProt P04150)",
    "qualitative.label": "rule not met"
  },
  {
    "compound": "COc1ccc([C@@H](c2ccccc2)C(C)(C)C(=O)Nc2nncs2)cc1Br [Example 292]",
    "target.entity": "human glucocorticoid receptor (Homo sapiens, UniProt P04150)",
    "qualitative.label": "rule not met"
  },
  {
    "compound": "CC(C)CC(c1ccc(Br)cc1)C(C)(C)C(=O)Nc1nncs1 (centres unmarked) [Example 387]",
    "target.entity": "human glucocorticoid receptor (Homo sapiens, UniProt P04150)",
    "qualitative.label": "rule met"
  },
  {
    "compound": "COCc1ccc(-c2ccc(C(CC(C)C)C(C)(C)C(=O)Nc3nncs3)cc2)cc1 (centres unmarked) [Example 428]",
    "target.entity": "human glucocorticoid receptor (Homo sapiens, UniProt P04150)",
    "qualitative.label": "rule met"
  },
  {
    "compound": "CC(C)(C(=O)Nc1nncs1)C(c1ccccc1)c1ccc(-c2ccc3c(c2)CCO3)cc1 (centres unmarked) [Example 415]",
    "target.entity": "human glucocorticoid receptor (Homo sapiens, UniProt P04150)",
    "qualitative.label": "rule met"
  },
  {
    "compound": "CC(=O)c1cccc(-c2ccc(C(c3ccccc3)C(C)(C)C(=O)Nc3nncs3)cc2)c1 (centres unmarked) [Example 413]",
    "target.entity": "human glucocorticoid receptor (Homo sapiens, UniProt P04150)",
    "qualitative.label": "rule not met"
  },
  {
    "compound": "CC(C)CC(c1ccc(-c2ccc(-c3ccccc3)cc2)cc1)C(C)(C)C(=O)Nc1nncs1 (centres unmarked) [Example 433]",
    "target.entity": "human glucocorticoid receptor (Homo sapiens, UniProt P04150)",
    "qualitative.label": "rule met"
  },
  {
    "compound": "CC(C)(C(=O)Nc1nccs1)C(c1ccccc1)c1ccc(Oc2ccccc2)cc1 (centres unmarked) [Example 321]",
    "target.entity": "human glucocorticoid receptor (Homo sapiens, UniProt P04150)",
    "qualitative.label": "rule met"
  },
  {
    "compound": "CC(C)(C(=O)Nc1nncs1)C(c1ccccc1)c1ccc(-c2cccc(Cl)c2)cc1 (centres unmarked) [Example 409]",
    "target.entity": "human glucocorticoid receptor (Homo sapiens, UniProt P04150)",
    "qualitative.label": "rule not met"
  },
  {
    "compound": "CC(C)(C(=O)Nc1nncs1)C(c1ccccc1)c1ccc(Cc2ccccc2)cc1 (centres unmarked) [Example 320]",
    "target.entity": "human glucocorticoid receptor (Homo sapiens, UniProt P04150)",
    "qualitative.label": "rule not met"
  },
  {
    "compound": "CC(C)CC(c1ccc(N2CCOCC2)cc1)C(C)(C)C(=O)Nc1nncs1 (centres unmarked) [Example 390]",
    "target.entity": "human glucocorticoid receptor (Homo sapiens, UniProt P04150)",
    "qualitative.label": "rule met"
  },
  {
    "compound": "Cc1cccc(C(c2ccc(N3CCOCC3)cc2)C(C)(C)C(=O)Nc2nncs2)c1 (centres unmarked) [Example 235]",
    "target.entity": "human glucocorticoid receptor (Homo sapiens, UniProt P04150)",
    "qualitative.label": "rule met"
  },
  {
    "compound": "CC(C)(C(=O)Nc1nccs1)C(c1ccc(N2CCOCC2)cc1)c1cccc(F)c1 (single isomer, unassigned) [Example 254]",
    "target.entity": "human glucocorticoid receptor (Homo sapiens, UniProt P04150)",
    "qualitative.label": "rule not met"
  },
  {
    "compound": "CC(C)(C)c1ccc(-c2ccc(C(c3ccccc3)C(C)(C)C(=O)Nc3nncs3)cc2)cc1 (centres unmarked) [Example 417]",
    "target.entity": "human glucocorticoid receptor (Homo sapiens, UniProt P04150)",
    "qualitative.label": "rule not met"
  },
  {
    "compound": "CC(C)CC(c1ccc(-c2ccc(C(=O)N(C)C)cc2)cc1)C(C)(C)C(=O)Nc1nncs1 (centres unmarked) [Example 393]",
    "target.entity": "human glucocorticoid receptor (Homo sapiens, UniProt P04150)",
    "qualitative.label": "rule met"
  },
  {
    "compound": "CN(C)C(=O)c1ccc(-c2ccc(C(c3ccccc3)C(C)(C)C(=O)Nc3nccs3)cc2)cc1 (centres unmarked) [Example 381]",
    "target.entity": "human glucocorticoid receptor (Homo sapiens, UniProt P04150)",
    "qualitative.label": "rule met"
  },
  {
    "compound": "CN(C)C(=O)c1ccc(-c2ccc(C(c3ccccc3)C(C)(C)C(=O)Nc3nncs3)cc2)cc1 (centres unmarked) [Example 380]",
    "target.entity": "human glucocorticoid receptor (Homo sapiens, UniProt P04150)",
    "qualitative.label": "rule not met"
  },
  {
    "compound": "COc1ccc(-c2ccc(C(c3ccccc3)C(C)(C)C(=O)Nc3nncs3)cc2)cc1F (centres unmarked) [Example 420]",
    "target.entity": "human glucocorticoid receptor (Homo sapiens, UniProt P04150)",
    "qualitative.label": "rule met"
  },
  {
    "compound": "CC(C)CC(c1ccc(N2CCOCC2)cc1)C(C)(C)C(=O)Nc1nccs1 (centres unmarked) [Example 389]",
    "target.entity": "human glucocorticoid receptor (Homo sapiens, UniProt P04150)",
    "qualitative.label": "rule met"
  },
  {
    "compound": "CCC(CC)(C(=O)Nc1nccs1)C(c1ccccc1)c1ccccc1 [Example 159]",
    "target.entity": "human glucocorticoid receptor (Homo sapiens, UniProt P04150)",
    "qualitative.label": "rule not met"
  },
  {
    "compound": "CC(C)(C(=O)Nc1nncs1)C(c1ccccc1)c1ccc(Oc2ccccc2)cc1 (centres unmarked) [Example 322]",
    "target.entity": "human glucocorticoid receptor (Homo sapiens, UniProt P04150)",
    "qualitative.label": "rule met"
  },
  {
    "compound": "CC(=O)Nc1ccc(-c2ccc(C(c3ccccc3)C(C)(C)C(=O)Nc3nncs3)cc2)cc1 (centres unmarked) [Example 414]",
    "target.entity": "human glucocorticoid receptor (Homo sapiens, UniProt P04150)",
    "qualitative.label": "rule met"
  },
  {
    "compound": "CCCCc1ccc(-c2ccc(C(c3ccccc3)C(C)(C)C(=O)Nc3nncs3)cc2)cc1 (centres unmarked) [Example 418]",
    "target.entity": "human glucocorticoid receptor (Homo sapiens, UniProt P04150)",
    "qualitative.label": "rule not met"
  },
  {
    "compound": "Cc1nnc(NC(=O)C(C)(C)C(CC(C)C)c2ccc(N3CCOCC3)cc2)s1 (centres unmarked) [Example 388]",
    "target.entity": "human glucocorticoid receptor (Homo sapiens, UniProt P04150)",
    "qualitative.label": "rule met"
  },
  {
    "compound": "CCC(C)(C(=O)Nc1nccs1)C(c1ccccc1)c1ccccc1 (centres unmarked) [Example 176]",
    "target.entity": "human glucocorticoid receptor (Homo sapiens, UniProt P04150)",
    "qualitative.label": "rule not met"
  },
  {
    "compound": "COc1ccccc1-c1ccc(C(CC(C)C)C(C)(C)C(=O)Nc2nncs2)cc1 (centres unmarked) [Example 435]",
    "target.entity": "human glucocorticoid receptor (Homo sapiens, UniProt P04150)",
    "qualitative.label": "rule met"
  },
  {
    "compound": "CC(=O)Nc1ccc(-c2ccc(C(CC(C)C)C(C)(C)C(=O)Nc3nncs3)cc2)cc1 (centres unmarked) [Example 440]",
    "target.entity": "human glucocorticoid receptor (Homo sapiens, UniProt P04150)",
    "qualitative.label": "rule not met"
  }
]
